Recorded values, source ChEMBL document CHEMBL4837216.

This section presents compounds with their documented HC50 at 0.5 h values.
measurement.description: Hemolytic activity in human RBC assessed as induction of cell lysis measured after 30 mins by microtiter plate method
Format: cell-based, Erythrocyte
condition.description: human red blood cells (erythrocytes)
Where a SMILES comes first, the peptide text is derived from it. [ ]: non-standard residue; d: D form. Orn = NCCC[C@H](N)C(=O)O
Enter your answer as a number in µM; do not include the unit.

Task: Kindly indicate its recorded HC50 at 0.5 h. Item: CC(C)C[C@@H]1NC(=O)[C@H](CCCN)NC(=O)[C@H](C(C)C)NC(=O)[C@H](CCCN)NC(=O)[C@H](CCC(N)=O)NC(=O)[C@H](CCCN)NC(=O)[C@@H](Cc2ccccc2)NC(=O)[C@H](Cc2ccccc2)NC(=O)[C@@H]2CCCN2C(=O)[C@@H](Cc2ccccc2)NC1=O
Output: 282

Task: Kindly indicate its recorded HC50 at 0.5 h. Item: CC(C)C[C@@H]1NC(=O)[C@H](CCCN)NC(=O)[C@H](C(C)C)NC(=O)[C@H](Cc2ccc(O)cc2)NC(=O)[C@H](CCCN)NC(=O)[C@H](CC(N)=O)NC(=O)[C@@H](Cc2ccccc2)NC(=O)[C@H](Cc2ccccc2)NC(=O)[C@@H]2CCCN2C(=O)[C@@H](Cc2ccccc2)NC1=O (cyclo(F[dF]N[Orn]YV[Orn]L[dF]P))
Output: 10

Task: Kindly indicate its recorded HC50 at 0.5 h. Item: CC(C)C[C@@H]1NC(=O)[C@H](CCCN)NC(=O)[C@H](C(C)C)NC(=O)[C@H](Cc2ccc(O)cc2)NC(=O)[C@H](CCC(N)=O)NC(=O)[C@H](CC(N)=O)NC(=O)[C@@H](Cc2ccccc2)NC(=O)[C@H](Cc2ccccc2)NC(=O)[C@@H]2CCCN2C(=O)[C@@H](Cc2ccccc2)NC1=O [TYROCIDINE A] (cyclo(F[dF]NQYV[Orn]L[dF]P))
Output: 14
